Readings of inhibition at 1 µM for the listed compounds
Target: S. aureus TrmD (Staphylococcus aureus, UniProt Q2FZ43)
Construct: made in house; host or cells: E. coli BL21
Assay: nanoSAR direct-to-biology FP displacement screening of crude triazoles
Type: binding
Details: crude triazole at 1 μM, assuming full conversion; 500 nM TrmD, 10 nM tracer 4; read-out: % displaced tracer
Answers without a unit are incomplete; give the number and then its unit.

// solved cases for inhibition at 1 µM follow
mol: O=c1[nH]cnc2[nH]cc(-c3cn(-c4cccc(F)c4)nn3)c12
metric: inhibition at 1 µM
result: 16%

mol: O=c1[nH]cnc2[nH]cc(-c3cn(Cc4cc(C(F)F)on4)nn3)c12
metric: inhibition at 1 µM
result: 38%

mol: NC(=O)c1cc(-n2cc(-c3c[nH]c4nc[nH]c(=O)c34)nn2)ccn1
metric: inhibition at 1 µM
result: 16%

Enquiry: # return recorded inhibition at 1 µM for input `O=c1[nH]cnc2[nH]cc(-c3cn(-c4ccc5c(c4)CCC5)nn3)c12`
Return: 5%

Enquiry: Supply inhibition at 1 µM value. Item: `O=c1[nH]cnc2[nH]cc(-c3cn(C[C@H]4COCCO4)nn3)c12`
Return: 57%

Enquiry: For the compound `O=c1[nH]cnc2[nH]cc(-c3cn(Cc4nccs4)nn3)c12` , report inhibition at 1 µM.
Return: 68%

Enquiry: Supply reported inhibition at 1 µM belonging to this compound: `O=C(Cn1cc(-c2c[nH]c3nc[nH]c(=O)c23)nn1)N1CCCCC1`
Return: 32%

Enquiry: Fill in inhibition at 1 µM for record `COC(=O)c1coc(Cn2cc(-c3c[nH]c4nc[nH]c(=O)c34)nn2)n1`
Return: 40%

Enquiry: Consider the compound `O=c1[nH]cnc2[nH]cc(-c3cn([C@H]4CCn5cccc5C4)nn3)c12` . State its measured inhibition at 1 µM.
Return: 24%

Enquiry: Determine from records and report inhibition at 1 µM for `NC(=O)C1(n2cc(-c3c[nH]c4nc[nH]c(=O)c34)nn2)CC1`
Return: 33%

Enquiry: # return recorded inhibition at 1 µM for input `COCc1cccc(-n2cc(-c3c[nH]c4nc[nH]c(=O)c34)nn2)c1`
Return: 17%

Enquiry: Supply measured inhibition at 1 µM of `C[C@@H](O)Cn1cc(-c2c[nH]c3nc[nH]c(=O)c23)nn1` in your reply.
Return: 15%

Enquiry: Could you please provide reported inhibition at 1 µM for `O=c1[nH]cnc2[nH]cc(-c3cn(CC4CC(F)(F)C4)nn3)c12` ? Thanks!
Return: 15%

Enquiry: Name the recorded inhibition at 1 µM of the compound listed here: `N#CCCCn1cc(-c2c[nH]c3nc[nH]c(=O)c23)nn1`
Return: 35%

Enquiry: Let me know recorded inhibition at 1 µM for `O=c1[nH]cnc2[nH]cc(-c3cn(Cc4nc5ccccc5[nH]4)nn3)c12` , thanks.
Return: 43%

Enquiry: Quickly give me recorded inhibition at 1 µM for `O=c1[nH]cnc2[nH]cc(-c3cn(-c4ccc5[nH]cnc5c4)nn3)c12`
Return: 27%

Enquiry: Give inhibition at 1 µM for `N#Cc1cccc(Cn2cc(-c3c[nH]c4nc[nH]c(=O)c34)nn2)c1`
Return: 100%

---

Target: S. aureus TrmD (Staphylococcus aureus, UniProt Q2FZ43)
Construct: made in house; host or cells: E. coli BL21
Assay: nanoSAR direct-to-biology FP displacement screening of crude triazoles
Type: binding
Details: crude triazole at 1 μM, assuming full conversion; 500 nM TrmD, 10 nM tracer 4; read-out: % displaced tracer
metric: inhibition at 1 µM
Write down the value, and be sure its unit follows.

molecule: NCCCn1cc(-c2c[nH]c3nc[nH]c(=O)c23)nn1 [Compound 03E10, O=C1NC=NC=2NC=C(C=3N=NN(C3)CCC[NH3+])C12]
inhibition at 1 µM: 68%

Enquiry: Determine its reported inhibition at 1 µM: `O=c1[nH]cnc2[nH]cc(-c3cn(CCCCF)nn3)c12`
Return: 19%

Enquiry: Return inhibition at 1 µM (reported value) for this molecule: `O=c1[nH]cnc2[nH]cc(-c3cn(C[C@H](O)Cc4cccc(F)c4)nn3)c12`
Return: 27%

Enquiry: Provide measured inhibition at 1 µM value, entry: `COC(=O)c1sccc1-n1cc(-c2c[nH]c3nc[nH]c(=O)c23)nn1`
Return: 21%

Enquiry: Determine from records and report inhibition at 1 µM for `CC(C)(C)Cn1cc(-c2c[nH]c3nc[nH]c(=O)c23)nn1`
Return: 19%

Enquiry: Indicate its recorded inhibition at 1 µM; the molecule in question is `COc1ccc(-n2cc(-c3c[nH]c4nc[nH]c(=O)c34)nn2)cc1`
Return: 9%

Enquiry: Respond only with inhibition at 1 µM recorded for `O=c1[nH]cnc2[nH]cc(-c3cn([C@H]4CCc5cccnc54)nn3)c12`
Return: 49%

Enquiry: Respond only with inhibition at 1 µM recorded for `C[C@H](c1csc2ccccc12)n1cc(-c2c[nH]c3nc[nH]c(=O)c23)nn1`
Return: 87%

Enquiry: Note down inhibition at 1 µM recorded for `O=c1[nH]cnc2[nH]cc(-c3cn(CCOc4ccc(Cl)cc4)nn3)c12`
Return: 85%

Enquiry: Supply measured inhibition at 1 µM of `Cc1ccccc1Cn1cc(-c2c[nH]c3nc[nH]c(=O)c23)nn1` in your reply.
Return: 75%

Enquiry: Return the recorded inhibition at 1 µM value; entry: `O=c1[nH]cnc2[nH]cc(-c3cn(CCOC4CCSCC4)nn3)c12`
Return: 54%

Enquiry: Answer with the recorded inhibition at 1 µM for the molecule listed here: `O=c1[nH]cnc2[nH]cc(-c3cn(C4CCCCC4)nn3)c12`
Return: 11%

Enquiry: Quickly give me recorded inhibition at 1 µM for `O=c1[nH]cnc2[nH]cc(-c3cn(C4CCNCC4)nn3)c12`
Return: 28%

Enquiry: Give inhibition at 1 µM for the following molecule: `C[C@@H](n1cc(-c2c[nH]c3nc[nH]c(=O)c23)nn1)C12CC(CO1)C2`
Return: 26%

---

Molecular target: S. aureus TrmD (Staphylococcus aureus)
Construct: made in house; host or cells: E. coli BL21
Test: nanoSAR direct-to-biology FP displacement screening of crude triazoles
Assay type: binding
Conditions: crude triazole at 1 μM, assuming full conversion; 500 nM TrmD, 10 nM tracer 4; read-out: % displaced tracer
Class Criterion met: inhibition at 1 µM at least 20%. Class Criterion not met: inhibition at 1 µM below 20%.

Answered examples (3):
mol: Cc1ccc(-n2cc(-c3c[nH]c4nc[nH]c(=O)c34)nn2)cc1Cl
system: S. aureus TrmD (Staphylococcus aureus)
label_class: Criterion not met

mol: O=c1[nH]cnc2[nH]cc(-c3cn(CCn4cnc5ccccc54)nn3)c12
system: S. aureus TrmD (Staphylococcus aureus)
label_class: Criterion met

mol: CC(C)(C)OCCCn1cc(-c2c[nH]c3nc[nH]c(=O)c23)nn1
system: S. aureus TrmD (Staphylococcus aureus)
label_class: Criterion met

Enquiry: Threshold query (inhibition at 1 µM >= 20%) on `COC[C@H](O)Cn1cc(-c2c[nH]c3nc[nH]c(=O)c23)nn1`
Return: Criterion not met

---

Target: S. aureus TrmD (Staphylococcus aureus, UniProt Q2FZ43)
Construct: made in house; host or cells: E. coli BL21
Sequence (Q2FZ43 1-245): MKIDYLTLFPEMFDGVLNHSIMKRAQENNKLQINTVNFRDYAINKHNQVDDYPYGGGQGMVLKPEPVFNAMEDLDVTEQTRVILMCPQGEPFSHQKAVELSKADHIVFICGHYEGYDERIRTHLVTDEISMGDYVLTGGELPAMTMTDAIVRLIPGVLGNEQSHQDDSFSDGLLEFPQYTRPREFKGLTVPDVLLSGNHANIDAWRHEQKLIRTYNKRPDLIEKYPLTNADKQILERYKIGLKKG
Assay: nanoSAR direct-to-biology FP displacement screening of crude triazoles
Format: binding
Settings: crude triazole at 1 μM, assuming full conversion; 500 nM TrmD, 10 nM tracer 4; read-out: % displaced tracer
metric: inhibition at 1 µM (%)
Give the number; % is assumed, so skip it.

# example entries with known answers
mol: O=c1[nH]cnc2[nH]cc(-c3cn([C@H]4COCC[C@@H]4O)nn3)c12
metric: inhibition at 1 µM
recorded_number: 49
--
mol: O=c1[nH]cnc2[nH]cc(-c3cn(C4COC4)nn3)c12
metric: inhibition at 1 µM
recorded_number: 19

Enquiry: Give the observed inhibition at 1 µM of `COc1ccccc1C(C)(C)n1cc(-c2c[nH]c3nc[nH]c(=O)c23)nn1` for S. aureus TrmD (Staphylococcus aureus, UniProt Q2FZ43).
Return: 5.49

Enquiry: Please tell me the measured inhibition at 1 µM for `Cc1cncc(CCn2cc(-c3c[nH]c4nc[nH]c(=O)c34)nn2)n1` ; system: S. aureus TrmD (Staphylococcus aureus, UniProt Q2FZ43).
Return: 69

Enquiry: Report inhibition at 1 µM under test system S. aureus TrmD (Staphylococcus aureus, UniProt Q2FZ43) for `O=c1[nH]cnc2[nH]cc(-c3cn(CC(F)(F)c4ccccc4)nn3)c12` .
Return: 46

Enquiry: Provide the reported inhibition at 1 µM (system: S. aureus TrmD (Staphylococcus aureus, UniProt Q2FZ43)) for `CC(C)(C)OC(=O)N[C@@]12CC[C@@H](C[C@H]1n1cc(-c3c[nH]c4nc[nH]c(=O)c34)nn1)C2`
Return: 12

Enquiry: Give inhibition at 1 µM only, for `O=c1[nH]cnc2[nH]cc(-c3cn(C[C@@H]4CNCCO4)nn3)c12` , using S. aureus TrmD (Staphylococcus aureus, UniProt Q2FZ43) data.
Return: 24

Just for reference, paper PMC12751012 is where these values come from.
